biological target: T1, Anti-CD28 scFv (VH-linker 1-VL) (biotinylated (site not stated)); experiment: phage ELISA, scFv wells pre-incubated with soluble CD28 (competitor); background signal 0.072
T1 construct: biotinylated and captured on neutravidin coated plates in the phage ELISA
T1 sequence (scFv, as listed by the source): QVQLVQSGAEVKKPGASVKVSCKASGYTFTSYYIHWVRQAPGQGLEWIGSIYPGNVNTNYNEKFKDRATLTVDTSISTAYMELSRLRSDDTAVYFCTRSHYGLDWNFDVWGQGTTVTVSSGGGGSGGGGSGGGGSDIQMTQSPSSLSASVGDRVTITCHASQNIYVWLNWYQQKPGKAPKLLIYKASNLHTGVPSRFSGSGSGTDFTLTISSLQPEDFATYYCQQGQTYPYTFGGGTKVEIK
Measured attribute: Phage binding ELISA CD28 scFv signal in presence of CD28
Respond using a number only.

> print(dat)
                      binder  reported
1  MDWCPVHLWSVCFA [Phage-38]     0.302
2  MDWCPRYLWHVCFA [Phage-36]     0.226
3  MDWCPRSHWHVCYN [Phage-75]     0.281

Next binder, Phage binding ELISA CD28 scFv signal in presence of CD28 to be filled in.
Field Phage binding ELISA CD28 scFv signal in presence of CD28 (entry MDWCPRDLWYACFA [Phage-116] ) reads 0.242
